Reported abundance fitness values for a set of variants
B1: POU domain, class 3, transcription factor 2, residues 262 to 338; numbered along this chain, P20265 (parent)
chain: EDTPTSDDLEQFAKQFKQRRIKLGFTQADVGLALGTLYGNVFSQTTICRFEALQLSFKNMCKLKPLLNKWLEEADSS

Variants of: B1
protocol description: abundance fitness (aPCA) (normalised: wild type 0, dead -1); higher = more abundant; growth selection in yeast, the domain comes from the species named
condition notes: Homo sapiens

abundance fitness for EDTPTSDDLEQFAKQFKQRRIKLGFTQADVGLALGTLYGNVFSQTTINRFEALQLSFKNMCKLKPLLNKWLEEADSS [C48N] is -0.071

Data provenance: the Human Domainome abundance scans (Beltran et al. 2025)
